Please provide measured pIC50 for the entries that follow.
// pIC50: -log10(molar conc.)

Problem: Requested read-out pIC50, target or system human Clk1 kinase (Homo sapiens, UniProt P49759), entry Cc1ccc([C@@H](C)NC(=O)c2ccc3c(c2)/C(=C(/Nc2cccc(CN4CCCCC4)c2)c2ccccc2)C(=O)N3)cc1
Result: 6.70

Problem: Requested read-out pIC50, target or system human Clk1 kinase (Homo sapiens, UniProt P49759), entry CC[C@@H](NC(=O)c1ccc2c(c1)/C(=C(/Nc1ccc(CN3CCN(C)CC3)cc1)c1ccccc1)C(=O)N2)c1ccccc1
Result: 8.00

Problem: Requested read-out pIC50, target or system human Clk1 kinase (Homo sapiens, UniProt P49759), entry CC[C@@H](NC(=O)c1ccc2c(c1)/C(=C(/Nc1ccc(CN3CCCCC3)cc1)c1ccccc1)C(=O)N2)c1ccccc1
Result: 7.52

Problem: Requested read-out pIC50, target or system human Clk1 kinase (Homo sapiens, UniProt P49759), entry COc1cccc([C@@H](C)NC(=O)c2ccc3c(c2)/C(=C(/Nc2ccc(CN4CCCCC4)cc2)c2ccccc2)C(=O)N3)c1
Result: 7.70

Problem: Requested read-out pIC50, target or system human Clk1 kinase (Homo sapiens, UniProt P49759), entry C[C@@H](NC(=O)c1ccc2c(c1)/C(=C(/Nc1ccc(CN3CCCCC3)cc1)c1ccccc1)C(=O)N2)c1ccc(F)cc1
Result: 7.70

Problem: Requested read-out pIC50, target or system human Clk1 kinase (Homo sapiens, UniProt P49759), entry O=C1Nc2ccc(C(=O)NCc3ccccc3)cc2/C1=C(/Nc1ccc(CN2CCCCC2)cc1)c1ccccc1
Result: 8.00

Problem: Requested read-out pIC50, target or system human Clk1 kinase (Homo sapiens, UniProt P49759), entry C[C@H](NC(=O)c1ccc2c(c1)/C(=C(/Nc1ccc(CN3CCCCC3)cc1)c1ccccc1)C(=O)N2)c1ccccc1
Result: 8.00

Problem: Requested read-out pIC50, target or system human Clk1 kinase (Homo sapiens, UniProt P49759), entry CC[C@@H](NC(=O)c1ccc2c(c1)/C(=C(/Nc1cccc(CN3CCCCC3)c1)c1ccccc1)C(=O)N2)c1ccccc1
Result: 6.68

Problem: Requested read-out pIC50, target or system human Clk1 kinase (Homo sapiens, UniProt P49759), entry COc1cccc([C@@H](C)NC(=O)c2ccc3c(c2)/C(=C(/Nc2ccc(CN4CCN(C)CC4)cc2)c2ccccc2)C(=O)N3)c1
Result: 8.00

Problem: Requested read-out pIC50, target or system human Clk1 kinase (Homo sapiens, UniProt P49759), entry COc1ccc(CNC(=O)c2ccc3c(c2)/C(=C(/Nc2ccc(CN4CCN(C)CC4)cc2)c2ccccc2)C(=O)N3)cc1OC
Result: 8.00

Problem: Requested read-out pIC50, target or system human Clk1 kinase (Homo sapiens, UniProt P49759), entry C[C@@H](NC(=O)c1ccc2c(c1)/C(=C(/Nc1ccc(CN3CCN(C)CC3)cc1)c1ccccc1)C(=O)N2)c1ccccc1
Result: 8.00
